# System: ATP;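 note: ATP exposure 15 min at 22 °C before imaging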
# assay details: switch fluorescence ratio, 500 uM ATP over buffer (Cy3 cluster intensity, sum of 5 cycles each) (fold (ratio)); higher = stronger signal-on switching upon ATP binding; sequences stand for … in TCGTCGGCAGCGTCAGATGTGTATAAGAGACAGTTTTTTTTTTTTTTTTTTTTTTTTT…TC
# condition description: aptamer strand: ATP DNA aptamer (quencher-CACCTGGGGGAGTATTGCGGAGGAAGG + anchor), 100 nM annealed; ATP concentration: 500 uM

seq string: CGTTCAACGA
switch fluorescence ratio: 1
--
seq string: GTGTATGGAT
switch fluorescence ratio: 1.02
--
seq string: GCAGTATTTG
switch fluorescence ratio: 0.991
--
seq string: TTTGGAAAGT
switch fluorescence ratio: 0.991
--
seq string: AAGGCAGGCG
switch fluorescence ratio: 0.977
--
seq string: AAGGGGCGAT
switch fluorescence ratio: 0.988
--
seq string: TTTTATGGGG
switch fluorescence ratio: 0.968
--
seq string: TATAAGTTAT
switch fluorescence ratio: 0.993
--
seq string: TTAGAAGTCA
switch fluorescence ratio: 1.01
--
seq string: GGACGTCGGA
switch fluorescence ratio: 1.05
--
seq string: GGTTGCAGCT
switch fluorescence ratio: 0.975
--
seq string: TACGGGCCGG
switch fluorescence ratio: 0.98
--
seq string: GTTGCGCACA
switch fluorescence ratio: 1.02
--
seq string: CTAGTGCCAG
switch fluorescence ratio: 1.02
--
seq string: GCTACTGTTA
switch fluorescence ratio: 1.08
--
seq string: GCGTACAAGA
switch fluorescence ratio: 1.04
--
seq string: TATAATAGCT
switch fluorescence ratio: 1.02
--
seq string: TCGGAAAAAT
switch fluorescence ratio: 0.966
--
seq string: AAGGTCATTA
switch fluorescence ratio: 0.972
--
seq string: GATCGTATGT
switch fluorescence ratio: 0.984
--
seq string: CCTGGCCTGC
switch fluorescence ratio: 1.08
--
seq string: TGTTATTGGT
switch fluorescence ratio: 1.01
--
seq string: CCTTCCTACG
switch fluorescence ratio: 2.36
--
seq string: ATTGGACTGG
switch fluorescence ratio: 0.998
--
seq string: AAGAACTATA
switch fluorescence ratio: 1.09
--
seq string: GAGGGATAAA
switch fluorescence ratio: 1
--
seq string: CTAATTGTTT
switch fluorescence ratio: 0.973
--
seq string: TGTTGGGGAC
switch fluorescence ratio: 1.02
--
seq string: TTGTGGGGCA
switch fluorescence ratio: 1.02
--
seq string: AAAAAAGTGG
switch fluorescence ratio: 1.02
--
seq string: TAAAGGTCAT
switch fluorescence ratio: 0.996
--
seq string: AATTTGTTTC
switch fluorescence ratio: 0.972
--
seq string: AAAGAGTTGG
switch fluorescence ratio: 0.99
--
seq string: GAAGTAGGTG
switch fluorescence ratio: 1.02
--
seq string: GCGGGGCCTT
switch fluorescence ratio: 0.981
--
seq string: GGTTGGCCGT
switch fluorescence ratio: 1.03
--
seq string: GCCACAAATT
switch fluorescence ratio: 1.01
--
seq string: TTTAGAAGGG
switch fluorescence ratio: 0.979
--
seq string: TTAGTGGTTG
switch fluorescence ratio: 0.992
--
seq string: AGACGCGCCA
switch fluorescence ratio: 1.05
--
seq string: CCAAGTGTGC
switch fluorescence ratio: 1.26
--
seq string: GATAGACGAG
switch fluorescence ratio: 1.03
--
seq string: CTACTTTAGA
switch fluorescence ratio: 0.993
